# Tested on: LOX IMVI melanoma
# Assay explanation: NCI tumour cell line growth inhibition, 48 h
Give log10 of TGI for every item shown.
Base-10 log of TGI, unit µM.

Compound: CN(C)CCCn1c2ccccc2c2cnccc21
log10 of TGI: 1.72

Compound: OC(CC(c1ccccc1)c1ccc(Cl)cc1)c1ccc(Cl)cc1 (stereo unspecified)
log10 of TGI: 1.89

Compound: CNc1ccc2nc(-c3ccc(OC(=O)N(C)C)cc3)cn2c1
log10 of TGI: 1.50

Compound: O=C(/C=C/N1CCN(c2cccc(C(F)(F)F)c2)CC1)c1ccc(Cl)cc1Cl
log10 of TGI: 1.67

Compound: CC(C)OP(=O)(OC(C)C)C(N(C)C)P(=O)(OC(C)C)OC(C)C.[Cl][Sn]([Cl])([Cl])[c]1ccccc1
log10 of TGI: 0.84

Compound: CC1CN=C(c2cccc(OCc3ccc(COc4cccc(C5=NCC(C)N5)c4)cc3)c2)N1 (stereo unspecified)
log10 of TGI: 1.79

Compound: O=C1c2cccnc2C(=O)c2c1c(C(=O)OCCCN1CCOCC1)c1ccccn21
log10 of TGI: -1.82

Compound: COc1cccc(-c2nn(-c3ccccc3)cc2-c2ccnc(NCCNC(=O)Nc3ccc(Cl)c(Cl)c3)c2)c1
log10 of TGI: 0.51

Compound: O=C1C=CC(=O)c2c(O)c(N3CCSCC3)c(Cl)c(O)c21
log10 of TGI: -0.44

Compound: c1ccc2c(c1)nc(NCCN1CCNCC1)c1c3ccccc3[nH]c21
log10 of TGI: 0.01

Provide the reported log10 of TGI of each entry below, same order.
1. N#Cc1c2c(c(N=[N+]=[N-])n3c1nc1ccccc13)CCCC2
2. O=C1CSC2(CC(/C=C/C=C/c3ccccc3)=NN2c2cccc(S(=O)(=O)O)c2)N1c1nc2ccccc2s1 (stereo unspecified)
3. Nc1ncnc2occ(-c3ccc(NC(=O)Nc4cc(C(F)(F)F)cc(C(F)(F)F)c4)cc3)c12

result:
1. 0.55
2. 1.63
3. 0.83

Please look at the items below and tell me log10 of TGI for each one, in order.
1. CC1=NN(c2ccc(C)cc2)C2(C1)SCC(=O)N2c1nc2ccccc2s1 (stereo unspecified)
2. COc1ccc(S(=O)(=O)N/N=C/C(=O)O)cc1
3. Cn1c(=O)c2c3oc(=O)cc(O)c3c(=O)n3c4ccccc4n(c1=O)c23
4. COc1ccc(C[C@H]2C[C@@H](O)[C@@H](C)C/C=C/Cc3cccc(O)c3C(=O)O2)cn1
5. O=C(CCCCCCCCCCc1ccccc1)c1c(O)cccc1O

result:
1.88
2.87
1.92
1.58
1.86

###

# Tested on: K-562 leukemia
# Assay explanation: NCI tumour cell line growth inhibition, 48 h
Measured quantity: GI50

Answered examples (2):
Compound structure string: Oc1ccc2ccccc2c1-c1nnc(CCCCCCCCc2nnc(-c3c(O)ccc4ccccc34)o2)o1
Target or test system: K-562 leukemia
GI50: 1.68 µM
--
Compound structure string: O=C1c2c(O)cccc2C(C(=O)CCCCC(=O)C2c3cccc(O)c3C(=O)c3c(O)cccc32)c2cccc(O)c21
Target or test system: K-562 leukemia
GI50: 1.21 µM

Form field GI50 for item Cc1ccc([P+](Cc2ccc([N+](=O)[O-])cc2)(c2ccc(C)cc2)c2ccc(C)cc2)cc1 on K-562 leukemia: 1.28 µM

###

Would you kindly list GI50 for each of these molecules?
# Tested on: SK-MEL-28 melanoma
# Assay explanation: NCI tumour cell line growth inhibition, 48 h

Please look at the items below and tell me GI50 for each one, in order.
1. C[C@@H](NC(=O)Cc1cc(F)cc(F)c1)C(=O)N[C@@]1(C)N=C(c2ccccc2)c2ccccc2N(C)C1=O
2. Oc1ccc2ccccc2c1-c1nnc(CCCCCCCCc2nnc(-c3c(O)ccc4ccccc34)o2)o1
3. O=c1oc(-c2ccc(O)c(O)c2)cc2cc(O)cc(O)c12
4. CCOC(=O)c1[nH]c2c(c1C)-c1[nH]c(=O)c(S(=O)(=O)c3ccccc3)cc1SC2
5. CN1C(=O)c2cc(Cl)nc3c(NC(=O)c4cccc(Cl)c4)c(Cl)c(NC(=O)c4cccc(Cl)c4)c1c23
6. CN1CCCC1c1cccnc1.O=C(O)c1ccccc1O.O=C([O-])c1ccccc1[OH2+].O=C([O-])c1ccccc1[OH2+].O=C([O-])c1ccccc1[OH2+].[Mn+2] (stereo not drawn)

result:
["> 100 µM", "> 25 µM", "39.5 µM", "70 µM", "1.78 µM", "> 100 µM"]

Kindly give each listed record's GI50.
1. COc1ccccc1C(=O)c1cnc(NC2CCN(S(C)(=O)=O)CC2)nc1N
2. Nc1ncnc2occ(-c3ccc(NC(=O)Nc4cc(C(F)(F)F)cc(C(F)(F)F)c4)cc3)c12

result:
1. 6.38 µM
2. 4.24 µM

###

I'd appreciate it if you could supply TGI values for the items below.
# System: A498 renal
# Assay explanation: NCI tumour cell line growth inhibition, 48 h
Give bare numbers, in µM.

Consider the worked cases shown below.
Molecule: O=c1oc(-c2ccc(O)c(O)c2)cc2cc(O)cc(O)c12
Target or test system: A498 renal
Display unit: µM
TGI: 56.7
--
Molecule: CC(C)OP(=O)(OC(C)C)C(N(C)C)P(=O)(OC(C)C)OC(C)C.[Cl][Sn]([Cl])([Cl])[c]1ccccc1
Target or test system: A498 renal
Display unit: µM
TGI: 89.8
--
Molecule: COC(=O)[C@H](Cc1ccccc1)NC(=O)c1csc([C@@H](C[C@H](C(C)C)N(C)C(=O)[C@@H](NC(=O)[C@H]2CCCCN2C)C2CC2)OC(C)=O)n1
Target or test system: A498 renal
Display unit: µM
TGI: 1.67

Turning now to a further molecule:
Memo: COc1cc(C(c2cc3c(cc2O)OCO3)N2CCCC2)cc(OC)c1OC (stereo not given) , reported TGI: 36.8

###

# Test system: HCT-116 colon
Record form. Attribute: GI50. Fill in for each entry.

Compound: CCN(CC)CCC(=O)Nc1ccc(Cn2nnc3c2C(=O)c2nnn(Cc4ccc(NC(=O)CCN(CC)CC)cc4)c2C3=O)cc1
Value reported: 0.283 µM
--
Compound: O=C1c2c(O)cccc2C(C(=O)CCCCC(=O)C2c3cccc(O)c3C(=O)c3c(O)cccc32)c2cccc(O)c21
Value reported: 1.93 µM
--
Compound: COC(=O)c1cc(Nc2ccc(O)c3c2C(=O)c2c([N+](=O)[O-])ccc(O)c2C3=O)cc(C(=O)OC)c1
Value reported: 4.17 µM
--
Compound: CN1C(=O)c2cc(Cl)nc3c(NC(=O)c4cccc(Cl)c4)c(Cl)c(NC(=O)c4cccc(Cl)c4)c1c23
Value reported: 1.31 µM
--
Compound: COc1ccc(C[C@H]2C[C@@H](O)[C@@H](C)C/C=C/Cc3cccc(O)c3C(=O)O2)cn1
Value reported: 19.5 µM
--
Compound: COc1ccccc1Cn1cc2c(c1)-c1oncc1CC2
Value reported: 0.39 µM

For every item in the list below, what is its measured GI50?
1. Cc1nn(-c2ccccc2)c2c1C1C(=C(c3ccc(Cl)cc3)N2)C(=O)Nc2ccccc21 (centres undefined)
2. C/C(=C(/c1ccc(O)cc1)c1ccc(OCCN2CCCC2)cc1)c1ccccc1

result:
1. 3.55 µM
2. 2.92 µM

Here are 6 compounds. What values of GI50 were reported for them?
1. CCN(CC)CCOc1ccc(/C=C2\C[C@H]3[C@@H]4CC=C5C[C@@H](OC(C)=O)CC[C@]5(C)[C@H]4CC[C@]3(C)[C@H]2OC(C)=O)cc1OC
2. CC(C)(C)n1cc(-c2ccnc(NCCNS(=O)(=O)c3ccc(Br)cc3)c2)c(-c2cccc(O)c2)n1
3. CCOC(=O)c1[nH]c2c(c1C)-c1[nH]c(=O)c(S(=O)(=O)c3ccccc3)cc1SC2
4. O=C1OC(c2ccc(O)cc2)(c2ccc(O)cc2)c2cccc3cccc1c23
5. O=C1C=C(Nc2cccc(Br)c2)c2ccccc2C1=O
6. CCCC/C(=N\N=C(N)N)c1ccc(F)cc1

result:
9.76 µM
1.44 µM
36.1 µM
15.6 µM
10.6 µM
3.51 µM

###

# Tested on: OVCAR-4 ovarian
# Assay explanation: NCI tumour cell line growth inhibition, 48 h
Measured quantity: TGI (µM)
One number for each entry, in µM.

The following compounds have reported results that may help.
Compound structure string: C/C(=C(/c1ccc(O)cc1)c1ccc(OCCN2CCCC2)cc1)c1ccccc1
Target or test system: OVCAR-4 ovarian
TGI [µM]: 17.5
--
Compound structure string: CC(C)(C)n1cc(-c2ccnc(NCCNS(=O)(=O)c3ccc(Br)cc3)c2)c(-c2cccc(O)c2)n1
Target or test system: OVCAR-4 ovarian
TGI [µM]: 3.59
--
Compound structure string: Cc1ccc([P+](Cc2ccc([N+](=O)[O-])cc2)(c2ccc(C)cc2)c2ccc(C)cc2)cc1
Target or test system: OVCAR-4 ovarian
TGI [µM]: 11.3

Query compound follows.
TGI measured on Cc1ccc2c(c1)c(=O)c1c(NCCN(C)C)ccc3nnn2c31 = 12.9

FYI, the data here is from PubChem BioAssay (NCI).
